All figures here come from patent US12534531.

# system.under.test: T1, soluble human PD-1 (the extracellular domain of human PD-1 fused to a His tag) (human, UniProt Q15116 25-170)
# T1 construct: also called shPD-1 His; shPD-1-His; not shown: His tag
# assay.info: ELISA: shPD-1 His coated at 1 ug/ml, goat anti-mouse (H+L)-HRP, RLU
readout.kind: EC50 (read off the curve)

Query: I am curious: what EC50 (read off the curve) value has been reported for PD-1 mAb 9 (antibody, V domains shown, Murine monoclonal antibody) VH: EVMLVESGGGLVKPGGSLKLSCAASGFTFSSYLVSWVRQTPEKRLEWVATISGGGGNTYYSDSVKGRFTISRDNAKNTLYLQISSLRSEDTALYYCARYGFDGAWFAYWGQGTLVTVSS VL: DIQMTQSPASLSASVGDIVTITCRASENIYSYLAWYQQKQEKSPQLLVYNAKTLAAGVPSRFSGSGSGTQFSLTINSLQPEDFGNYYCQHHYAVPWTFGGGTRLEIT ?
Result: ~0.4 nM

Query: I am curious: what EC50 (read off the curve) value has been reported for PD-1 mAb 2 (antibody, V domains shown, Murine monoclonal antibody) VH: DVQLVESGGGLVQPGGSRKLSCAASGFVFSSFGMHWVRQAPEKGLEWVAYISSGSMSISYADTVKGRFTVTRDNAKNTLFLQMTSLRSEDTAIYYCASLSDYFDYWGQGTTLTVSS VL: DVVMSQTPLSLPVSLGDQASISCRSSQSLVHSTGNTYLHWYLQKPGQSPKLLIYRVSNRFSGVPDRFSGSGSGTDFTLKISRVEAEDLGVFFCSQTTHVPWTFGGGTKLEIK ?
Result: ~0.3 nM

Query: I am curious: what EC50 (read off the curve) value has been reported for PD-1 mAb 4 (antibody, V domains shown, Murine monoclonal antibody) VH: DVQLVESGGGLVQPGGSRKLSCAASGFVFSSFGMHWVRQAPEKGLEWVAYISSGSMSISYADTVKGRFTVTRDNAKNTLFLQMTSLRSEDTAIYYCASLTDYFDYWGQGTTLTVSS VL: DVVMSQTPLSLPVSLGDQASISCRSSQSLVHSTGNTYFHWYLQKPGQSPKLLIYRVSNRFSGVPDRFSGSGSGTDFTLKISRVEAEDLGVYFCSQTTHVPWTFGGGTKLEIK ?
Result: ~0.3 nM
